# Test system: Candida albicans
# Procedure details: Antifungal activity against Candida albicans ATCC 10231 after 48 hr by turbidity based microplate metohd
# Format: functional
# Particulars: ATCC 10231, 48 h
Value type: MIC (mg/L)

> print(dat)
                                     smiles            system  recorded.result
1  O=C(CC(=O)c1cc(Cl)c(O[C@@H]2O[C@H](CO)[C@@H](O)[C@H](O)[C@H]2O)cc1O)c1cccnc1  Candida albicans            10000
2  O=C(CC(=O)c1cc(Cl)c(O[C@@H]2O[C@H](CO)[C@@H](O)[C@H](O)[C@H]2O)cc1O)c1ccco1  Candida albicans             2500
3  O=C(CC(=O)c1ccc(O[C@@H]2O[C@H](CO)[C@@H](O)[C@H](O)[C@H]2O)cc1O)c1cccnc1  Candida albicans            10000
4  O=C(CC(=O)c1ccc(O[C@@H]2O[C@H](CO)[C@@H](O)[C@H](O)[C@H]2O)cc1O)c1ccccn1  Candida albicans             2500
5  O=C(CC(=O)c1cc(Cl)c(O[C@@H]2O[C@H](CO)[C@@H](O)[C@H](O)[C@H]2O)cc1O)c1cccs1  Candida albicans             5000
6  O=C(CC(=O)c1cc(Cl)c(O[C@@H]2O[C@H](CO)[C@@H](O)[C@H](O)[C@H]2O)cc1O)c1ccccn1  Candida albicans              150
7  O=C(CC(=O)c1ccc(O[C@@H]2O[C@H](CO)[C@@H](O)[C@H](O)[C@H]2O)cc1O)c1ccco1  Candida albicans             5000
8        OC(Cn1cncn1)(Cn1cncn1)c1ccc(F)cc1F  Candida albicans               10
9  O=C(CC(=O)c1ccc(O[C@@H]2O[C@H](CO)[C@@H](O)[C@H](O)[C@H]2O)cc1O)c1cccs1  Candida albicans             2500
